TGI by entry:
System: MDA-MB-435
ASSAY OVERVIEW: NCI tumour cell line growth inhibition, 48 h
READOUT NAME: TGI

MOLECULE	RECORDED RESULT
COc1ccc(Cc2ccc3[nH]c(=O)cc(C)c3c2)cc1S(=O)(=O)O	> 100 µM
Cc1c(C)c(S(=O)(=O)N(CCCN)OCCCN)c(C)c2c1OC(C)(C)CC2	29.6 µM
CC(=O)OC(OC(C)=O)c1c2ccccc2cc2ccccc12	> 100 µM
O=C(N/N=C\c1ccc(N(CCCl)CCCl)cc1)c1cccnc1	> 100 µM
COc1ccc2c(c1)c1ccc3c(c1n2C)C(=O)C=CC3=O	22.7 µM
COC(Cc1cc(C(O)(c2ccc(C(C)(C)C)cc2)c2cc(CC(OC)(c3cc(C(OC)(c4ccc(C(C)(C)C)cc4)c4ccc(C(C)(C)C)cc4)c(C)cc3C)c3cc(C(OC)(c4ccc(C(C)(C)C)cc4)c4ccc(C(C)(C)C)cc4)c(C)cc3C)c(C)cc2C)c(C)cc1C)(c1cc(C(OC)(c2ccc(C(C)(C)C)cc2)c2ccc(C(C)(C)C)cc2)c(C)cc1C)c1cc(C(OC)(c2ccc(C(C)(C)C)cc2)c2ccc(C(C)(C)C)cc2)c(C)cc1C	> 75 µM
COP(=O)(/C=C/C(NC(=O)C(Cl)(Cl)Cl)c1ccccc1)OC (stereo not drawn)	> 100 µM
O=C(N/N=C/c1ccc([N+](=O)[O-])cc1)c1ccccc1Nc1ccnc(C(F)(F)F)c1	35.1 µM

* * *

Tested on: CAKI-1 renal
ASSAY OVERVIEW: NCI tumour cell line growth inhibition, 48 h

COMPOUND	TGT	MEASUREMENT UNIT	RELATION SYMBOL	TGI
O=C([O-])c1ccccc1Nc1ccccc1C(=O)[O-].[OH3+].[Zn+2]	CAKI-1 renal	µM	=	8.45
O=c1cc(-c2ccccc2)oc2c(O)c(O)ccc12	CAKI-1 renal	µM	=	61.2
C/C(COc1ccc2oc(-c3ccccc3)cc(=O)c2c1)=N\O	CAKI-1 renal	µM	>	100
OCC#Cc1ccccc1C#Cc1ccc(C#Cc2ccccc2C#CCO)cc1	CAKI-1 renal	µM	>	100
COc1ccc2c(c1)/C(=C\c1c(-c3ccccc3)nc3sccn13)C(=O)N2	CAKI-1 renal	µM	=	0.37
O=S(=O)(O)c1ccc(N=Nc2ccc(N=Nc3c(O)ccc4ccc(S(=O)(=O)O)cc34)cc2)cc1	CAKI-1 renal	µM	>	100
COc1nc2c(c(=O)[nH]1)N=C(c1ccccc1)CC(c1ccccc1)N2 (stereo not given)	CAKI-1 renal	µM	>	100
OC(c1cc2ccccc2[nH]1)C(O)(c1cc2ccccc2[nH]1)c1cc2ccccc2[nH]1 (stereo not given)	CAKI-1 renal	µM	=	51.9
CS(=O)(=O)c1ccc(C(=O)O[C@@H]2C(=O)N3CC[C@H]4OC(O)[C@@H]2[C@H]43)cc1 (stereo not given in full)	CAKI-1 renal	µM	>	100
CCOC(=O)c1ccc(Nc2nc3ccccc3n3cccc23)cc1	CAKI-1 renal	µM	>	100

* * *

Test system: CCRF-CEM leukemia
ASSAY OVERVIEW: NCI tumour cell line growth inhibition, 48 h
TGI by entry:

MOLECULE	MEASUREMENT UNIT	RELATION SYMBOL	TGI
CCCCCCCCCCNC(=S)OC	µM	>	100
C/C(CC(O)(C(F)(F)F)C(F)(F)F)=N\NC(N)=S	µM	>	10
Cc1cccc2c(=O)c3c(sc12)c(NCCCN)nc1ccccc13	µM	=	3.13
O=[N+]([O-])c1cc(I)cc(/C=N/NS(=O)(=O)c2ccc(F)cc2)c1O	µM	=	53.9
N[C@@H](Cc1c[nH]c2ccccc12)C(=O)NC1CCN(Cc2c[nH]c3ccc(Cl)cc23)CC1	µM	=	4.95
COc1nc2c(c(=O)[nH]1)N=C(c1ccccc1)CC(c1ccccc1)N2 (stereo not given)	µM	>	100
C[C@H](CCC(=O)O)[C@H]1CC[C@H]2[C@@H]3[C@@H](O)C[C@@H]4C[C@H](O)CC[C@]4(C)[C@H]3C[C@H](O)[C@]12C	µM	>	100
NS(=O)(=O)c1ccc(N=Nc2ccc(O)cc2)cc1	µM	>	100
CC(C)CC(C#CCCOC(=O)c1ccccc1)OC(=O)c1ccccc1 (stereo not given)	µM	>	10
CC1(C)N=C(N)N=C(N)N1c1cccc(CCCCc2ccc(Cl)c(S(=O)(=O)F)c2)c1	µM	=	17.6
